- test_system: T1, Murine APRIL (mouse, UniProt Q9D777 105-241, limits assumed)
- T1 sequence (looked up): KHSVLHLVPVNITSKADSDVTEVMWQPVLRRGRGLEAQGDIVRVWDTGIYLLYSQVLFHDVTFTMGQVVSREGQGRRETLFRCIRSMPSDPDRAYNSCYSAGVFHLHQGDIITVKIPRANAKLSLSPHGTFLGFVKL
- test_details: shotgun scan, phage display
parameter: F (APRIL)
I only need the number, thanks.

- SLSCRKEQGKFYDDLLRDCISCASICGQHPKQCAYFCENKLR (receptor, phage library variant, format as m9) [TACI_d2 H81D]: 0.9
- SLSCRKEQGTFYDHLLRDCISCASICGQHPKQCAYFCENKLR (receptor, phage library variant, format as m9) [TACI_d2 K77T]: 0.7
- SLSCRKEQGKVYDHLLRDCISCASICGQHPKQCAYFCENKLR (receptor, phage library variant, format as m9) [TACI_d2 F78V]: 5.2
- SLSCRKEQGKFYDHLLRDCISCASICGQHPAQCAYFCENKLR (receptor, phage library variant, format as m9) [TACI_d2 K98A]: 3.5

Please turn your attention to the following entry.
Exam item: Using the record for SLSCRKEQGKFYDHLLRDCISCASICGQHPKQCAYSCENKLR (receptor, phage library variant, format as m9) [TACI_d2 F103S] , report its F (APRIL).
Marked response: 5.8
